The entries below are paired with their reported pEC50.
- test_target: T1, human alpha2-Antiplasmin (human, UniProt P08697 40-491)
- T1 construct: Bought (antibodies online, ABIN2544306); also called human A2AP; a2AP
- T1 sequence: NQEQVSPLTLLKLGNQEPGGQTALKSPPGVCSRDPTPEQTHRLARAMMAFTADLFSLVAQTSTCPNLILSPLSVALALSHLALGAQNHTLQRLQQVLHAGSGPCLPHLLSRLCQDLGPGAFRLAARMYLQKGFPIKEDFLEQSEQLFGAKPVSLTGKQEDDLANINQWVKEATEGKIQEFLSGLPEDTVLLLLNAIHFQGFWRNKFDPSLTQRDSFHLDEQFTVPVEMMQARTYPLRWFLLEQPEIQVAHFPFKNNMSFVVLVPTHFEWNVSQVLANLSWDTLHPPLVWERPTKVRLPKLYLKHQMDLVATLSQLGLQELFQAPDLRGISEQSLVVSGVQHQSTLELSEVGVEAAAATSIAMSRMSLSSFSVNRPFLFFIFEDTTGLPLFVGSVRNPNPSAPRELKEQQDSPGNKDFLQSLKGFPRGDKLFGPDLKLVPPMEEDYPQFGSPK
- experiment: ELISA, coated antigen, quantified unpurified antibody, 2nd exp.
Field pEC50 (float): negative decimal logarithm of the concentration in molar.

Field request: pEC50 | item: TPP-17041 hIgG1 (antibody, V domains shown, Germline variant of TPP-14308) VH: EVQLLESGGGLVQPGGSLRLSCAASGFTFSDYAMSWVRQAPGKGLEWVSAIGTGGGTYYADSVKGRFTISRDNSKNTLYLQMNSLRAEDTAVYYCAREGYDSSGYYHLDYWGQGTLVTVSS VL: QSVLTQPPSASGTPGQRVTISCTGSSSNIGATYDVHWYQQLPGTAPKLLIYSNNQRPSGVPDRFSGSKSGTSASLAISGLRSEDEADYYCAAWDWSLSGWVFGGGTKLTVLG
9.64

Item TPP-17053 hIgG1 (antibody, V domains shown, Germline variant of TPP-14308) VH: EVQLLESGGGLVQPGGSLRLSCAASGFTFDDYAMSWVRQAPGKGLEWVSAIGSGGSTYYADSVKGRFTISRDNSKNTLYLQMNSLRAEDTAVYYCAREGYDSSGYYHLDYWGQGTLVTVSS VL: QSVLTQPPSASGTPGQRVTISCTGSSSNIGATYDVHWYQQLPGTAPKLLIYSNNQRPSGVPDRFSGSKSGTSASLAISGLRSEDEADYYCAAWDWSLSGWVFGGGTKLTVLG has what recorded pEC50?
9.24

Please look up its pEC50: TPP-17051 hIgG1 (antibody, V domains shown, Germline variant of TPP-14308) VH: EVQLLESGGGLVQPGGSLRLSCAASGFTFDSYAMSWVRQAPGKGLEWVSAIGTGGSTYYADSVKGRFTISRDNSKNTLYLQMNSLRAEDTAVYYCAREGYDSSGYYHLDYWGQGTLVTVSS VL: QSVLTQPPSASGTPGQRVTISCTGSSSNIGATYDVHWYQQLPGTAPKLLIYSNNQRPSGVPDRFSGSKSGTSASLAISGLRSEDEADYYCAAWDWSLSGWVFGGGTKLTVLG
9.80

Need pEC50, item TPP-17048 hIgG1 (antibody, V domains shown, Germline variant of TPP-14308) VH: EVQLLESGGGLVQPGGSLRLSCAASGFTFSDYAMSWVRQAPGKGLEWVSAIGTGGSTYYADSVKGRFTISRDNSKNTLYLQMNSLRAEDTAVYYCAREGYDSSGYYHLDYWGQGTLVTVSS VL: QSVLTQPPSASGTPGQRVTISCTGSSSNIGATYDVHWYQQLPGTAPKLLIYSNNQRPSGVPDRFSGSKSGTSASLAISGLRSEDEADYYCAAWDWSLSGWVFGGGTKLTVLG
9.44

What value of pEC50 has been recorded for this entry: TPP-17045 hIgG1 (antibody, V domains shown, Germline variant of TPP-14308) VH: EVQLLESGGGLVQPGGSLRLSCAASGFTFDDYAMSWVRQAPGKGLEWVSAIGTGGGTYYADSVKGRFTISRDNSKNTLYLQMNSLRAEDTAVYYCAKEGYDSSGYYHLDYWGQGTLVTVSS VL: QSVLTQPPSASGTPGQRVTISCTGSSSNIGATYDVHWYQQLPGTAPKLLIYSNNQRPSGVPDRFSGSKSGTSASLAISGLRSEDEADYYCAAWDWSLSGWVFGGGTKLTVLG
9.92
